# System: L1210 leukemia ip in BDF1 mice, survival T/C
# assay_comment: NCI In Vivo Anticancer Drug Screen. Data for tumor model L1210 Leukemia (intraperitoneal) in B6D2F1 (BDF1) mice
# conditions: endpoint: mean survival time; dose: 100.0 mg/kg/injection; schedule: Q01DX009 (ip); vehicle: saline; higher = longer survival
# Description: The antitumor activity of compounds was measured in mice bearing transplantable tumors. Survival or tumor size were measured and the results are expressed as the measurement made in the treated group (T) divided by the measurement made in the vehicle treated control group (C). The tumor model used in this assay is L1210 Leukemia (intraperitoneal) in B6D2F1 (BDF1) mice
Inconclusive results and toxic doses are left out.
endpoint: T/C

INSERT INTO results (molecule, val) VALUES
  ('CCC(C)C(C(=O)OC1CCN(C)CC1)c1ccccc1 (configuration not stated)', '98 % of control'),
  ('C=CCS(=O)(=O)c1ccccc1', '106 % of control'),
  ('S=C([S-])N(Cc1ccccc1)Cc1ccccc1.S=C([S-])N(Cc1ccccc1)Cc1ccccc1.[Zn]', '102 % of control');

Challenge: Which measured T/C value corresponds to CC(=O)OC1/C(=C/c2ccco2)CCC2CCCCC21C (configuration not stated) ?
Response given: 103 % of control

Challenge: Which measured T/C value corresponds to OC1CC2CCC1C21OCCO1 (configuration not stated) ?
Response given: 107 % of control

Challenge: Which measured T/C value corresponds to C(CSC1=NCCN1)CSC1=NCCN1 ?
Response given: 115 % of control

====

# Tested on: L1210 leukemia ip in BDF1 mice, survival T/C
# assay_comment: NCI In Vivo Anticancer Drug Screen. Data for tumor model L1210 Leukemia (intraperitoneal) in B6D2F1 (BDF1) mice
# conditions: endpoint: mean survival time; dose: 100.0 mg/kg/injection; schedule: Q01DX001 (ip); vehicle: saline; higher = longer survival
Inconclusive results and toxic doses are left out.
Entries and their measured T/C follow.

INSERT INTO assay_data (cpd_smiles, val) VALUES
  ('O=c1[nH]cccc1CC(O)(c1ccccc1)c1ccccc1', '101 % of control'),
  ('CS(=O)(=O)/C=C(\I)c1ccccc1', '97 % of control');

Challenge: Which measured T/C value corresponds to NCCc1c[nH]c2ccccc12 ?
Response given: 102 % of control

Challenge: Which measured T/C value corresponds to O=C(O)/C(=N\Nc1ccccc1)c1ccccc1 ?
Response given: 96 % of control

Challenge: Which measured T/C value corresponds to CN(C)CCCN(C)CCCCN(C)CCCN(C)C ?
Response given: 96 % of control

====

# System: L1210 leukemia ip in BDF1 mice, survival T/C
# assay_comment: NCI In Vivo Anticancer Drug Screen. Data for tumor model L1210 Leukemia (intraperitoneal) in B6D2F1 (BDF1) mice
# conditions: endpoint: mean survival time; dose: 400.0 mg/kg/injection; schedule: Q01DX001 (ip); vehicle: saline; higher = longer survival
Inconclusive results and toxic doses are left out.
Entries and their measured T/C follow.

Example compounds with recorded T/C:
INSERT INTO results (compound, endpoint, val) VALUES
  ('O=P1(Nc2ccccc2)OCCCN1Cc1ccc(Cl)c(Cl)c1 (stereo not given)', 'T/C', '102 % of control'),
  ('NC(=S)N/N=C/c1cccc(/C=N/NC(N)=S)c1', 'T/C', '93 % of control'),
  ('O=C(O)CCC(=O)c1ccc2ccc3cccc4ccc1c2c34', 'T/C', '103 % of control');

Challenge: Which measured T/C value corresponds to CCC(C)c1nc2c([nH]1)c(=O)n(C)c(=O)n2C (stereo not given) ?
Response given: 104 % of control

Challenge: Which measured T/C value corresponds to CC1(N)COP(=O)(NCc2ccccc2)OC1 (stereo not given) ?
Response given: 103 % of control

====

Entries and their measured T/C follow.
# Test system: L1210 leukemia ip in BDF1 mice, survival T/C
# assay_comment: NCI In Vivo Anticancer Drug Screen. Data for tumor model L1210 Leukemia (intraperitoneal) in B6D2F1 (BDF1) mice
# conditions: endpoint: mean survival time; dose: 100.0 mg/kg/injection; schedule: Q04DX003 (ip); vehicle: saline; higher = longer survival
Toxic doses and inconclusive results are not listed.

Example compounds with recorded T/C:
INSERT INTO measurements (compound, val) VALUES
  ('CC#CCOCC1CNC(=O)O1 (configuration not stated)', '97 % of control'),
  ('Nc1ncnc2[nH]c(=O)[nH]c12', '98 % of control'),
  ('BrC#CC1CCCCC1', '100 % of control'),
  ('O=C(CCCO)N/N=C\c1ccc([N+](=O)[O-])s1', '95 % of control');

Challenge: Which measured T/C value corresponds to CCOC(=O)c1ccc([N+](=O)[O-])s1 ?
Response given: 100 % of control

Challenge: Which measured T/C value corresponds to [Cl][Tl] ?
Response given: 106 % of control

Challenge: Which measured T/C value corresponds to CCOC(=O)CCN1CCOCC1 ?
Response given: 111 % of control

Challenge: Which measured T/C value corresponds to CC[NH-].CC[NH-].[I][Pt+2][I] ?
Response given: 110 % of control

Challenge: Which measured T/C value corresponds to CCOC(=O)CCCSCCCC(=O)OCC ?
Response given: 111 % of control

Challenge: Which measured T/C value corresponds to C/C(CCC(=O)OC(C)(C)C)=N\N(C)C ?
Response given: 93 % of control

====

# Tested on: L1210 leukemia ip in BDF1 mice, survival T/C
# assay_comment: NCI In Vivo Anticancer Drug Screen. Data for tumor model L1210 Leukemia (intraperitoneal) in B6D2F1 (BDF1) mice
# conditions: endpoint: mean survival time; dose: 400.0 mg/kg/injection; schedule: Q04DX002 (ip); vehicle: saline with Tween-80; higher = longer survival
Toxic doses and inconclusive results are not listed.
endpoint: T/C

Challenge: Which measured T/C value corresponds to CCC1(c2ccccc2)C(=O)N(COCc2ccccc2)C(=O)N(COCc2ccccc2)C1=O ?
Response given: 98 % of control

Challenge: Which measured T/C value corresponds to O=C(O)CC1(c2ccccc2)OC(=O)c2ccccc21 (stereo not drawn) ?
Response given: 89 % of control

Challenge: Which measured T/C value corresponds to O=C(O)c1cc(Br)cc(Br)c1O ?
Response given: 88 % of control

====

# Tested on: L1210 leukemia ip in BDF1 mice, survival T/C
# assay_comment: NCI In Vivo Anticancer Drug Screen. Data for tumor model L1210 Leukemia (intraperitoneal) in B6D2F1 (BDF1) mice
# conditions: endpoint: mean survival time; dose: 100.0 mg/kg/injection; schedule: Q01DX009 (ip); vehicle: saline; higher = longer survival
Inconclusive results and toxic doses are left out.
endpoint: T/C

Example molecules with recorded T/C:
INSERT INTO measurements (molecule, val) VALUES
  ('O=C(O)CC(C(=O)O)C1C=CCC1 (stereo unspecified)', '97 % of control'),
  ('CC1CCOC(C)O1 (stereo unspecified)', '103 % of control'),
  ('CC(CCC(=O)O)Cc1ccccc1 (stereo unspecified)', '86 % of control'),
  ('O=c1[nH]c(=O)c2cccnc2[nH]1', '94 % of control'),
  ('O=C(O)C12CCC(CC1)C2', '110 % of control'),
  ('COc1ccc(COC(=O)Nc2cc(C(F)(F)F)ccc2Cl)cc1', '100 % of control'),
  ('O=c1cc(CO)[nH]nc1CO', '97 % of control'),
  ('Cc1ccc2c(c1)P(O)(=S)c1cc(Cl)ccc1O2 (stereo unspecified)', '108 % of control'),
  ('N#C/C(=N/O)c1ccccn1', '100 % of control'),
  ('O=S(=O)(O)c1ccc(-c2nc(-c3ccccc3)c(-c3ccccc3)[nH]2)cc1', '102 % of control');

Please turn your attention to the following entry.
Challenge: Which measured T/C belongs to BrCC(Br)C(Br)CBr (stereo unspecified) , tested on L1210 leukemia ip in BDF1 mice, survival T/C?
Response given: 93 % of control

====

# Tested on: L1210 leukemia ip in BDF1 mice, survival T/C
# assay_comment: NCI In Vivo Anticancer Drug Screen. Data for tumor model L1210 Leukemia (intraperitoneal) in B6D2F1 (BDF1) mice
# conditions: endpoint: mean survival time; dose: 100.0 mg/kg/injection; schedule: Q04DX003 (ip); vehicle: saline; higher = longer survival
Toxic doses and inconclusive results are not listed.
Entries and their measured T/C follow.

INSERT INTO assay_data (compound, endpoint, val) VALUES
  ('CC(N)Cc1ccccc1 (configuration not stated)', 'T/C', '105 % of control');

Challenge: Which measured T/C value corresponds to O=C(O)c1ccc(C(=O)O)c([N+](=O)[O-])c1 ?
Response given: 102 % of control

Challenge: Which measured T/C value corresponds to CCN(CC)CCOC(=O)Nc1ccc(Cl)cc1 ?
Response given: 98 % of control

Challenge: Which measured T/C value corresponds to O=C1CCCN1 ?
Response given: 92 % of control

Challenge: Which measured T/C value corresponds to c1ccc2cc(Nc3ccc(Nc4ccc5ccccc5c4)cc3)ccc2c1 ?
Response given: 106 % of control

Challenge: Which measured T/C value corresponds to Nc1cc(Cl)ccc1[N+](=O)[O-] ?
Response given: 103 % of control

Challenge: Which measured T/C value corresponds to CCCC(=O)/C=C/c1ccc(C)cc1 ?
Response given: 96 % of control
